Value source: paper PMC3325328

biological target: human TLR2 (Homo sapiens, UniProt O60603); test: human TLR2-specific NF-κB reporter gene assay; assay type: cell-based
Sequence (O60603 21-784): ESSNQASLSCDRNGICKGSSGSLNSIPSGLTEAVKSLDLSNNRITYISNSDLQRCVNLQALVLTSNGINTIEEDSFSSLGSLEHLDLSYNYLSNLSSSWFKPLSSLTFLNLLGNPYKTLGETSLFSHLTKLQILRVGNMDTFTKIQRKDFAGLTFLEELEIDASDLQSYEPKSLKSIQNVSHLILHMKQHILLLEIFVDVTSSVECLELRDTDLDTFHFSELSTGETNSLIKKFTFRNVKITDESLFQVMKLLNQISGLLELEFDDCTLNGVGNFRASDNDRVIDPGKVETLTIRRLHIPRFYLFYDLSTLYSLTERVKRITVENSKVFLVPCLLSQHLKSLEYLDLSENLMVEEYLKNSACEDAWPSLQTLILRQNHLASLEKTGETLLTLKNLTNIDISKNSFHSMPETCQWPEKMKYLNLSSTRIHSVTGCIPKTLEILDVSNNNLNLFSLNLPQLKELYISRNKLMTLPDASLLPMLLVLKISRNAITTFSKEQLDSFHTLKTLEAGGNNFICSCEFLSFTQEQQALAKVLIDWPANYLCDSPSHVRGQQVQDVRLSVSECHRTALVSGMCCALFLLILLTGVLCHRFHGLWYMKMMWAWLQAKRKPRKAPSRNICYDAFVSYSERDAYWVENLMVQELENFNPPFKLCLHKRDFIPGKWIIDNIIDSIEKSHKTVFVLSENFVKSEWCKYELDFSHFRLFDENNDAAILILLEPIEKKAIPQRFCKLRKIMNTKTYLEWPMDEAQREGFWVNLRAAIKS
MEASURED METRIC: hTLR2-agonistic activity (in words)

CCCCCCCCCCCCCCNCC(=O)OCCSC[C@H](N)C(=O)N[C@@H](CO)C(=O)OC [Compound 10b] :: completely inactive
CCCCCCCCCCCCCCN(CCCCCCCCCCCCCC)CC(=O)OCCSC[C@H](N)C(=O)N[C@@H](CO)C(=O)OC [Compound 10a] :: completely inactive
